# target-or-test-system: BRAF (Homo sapiens)
# Construct: purchased Eurofins Genomics KK; (BRAF); Thermo Fisher Scientific Inc. (MEK1)
# Sequence (P15056 417-766 limits assumed): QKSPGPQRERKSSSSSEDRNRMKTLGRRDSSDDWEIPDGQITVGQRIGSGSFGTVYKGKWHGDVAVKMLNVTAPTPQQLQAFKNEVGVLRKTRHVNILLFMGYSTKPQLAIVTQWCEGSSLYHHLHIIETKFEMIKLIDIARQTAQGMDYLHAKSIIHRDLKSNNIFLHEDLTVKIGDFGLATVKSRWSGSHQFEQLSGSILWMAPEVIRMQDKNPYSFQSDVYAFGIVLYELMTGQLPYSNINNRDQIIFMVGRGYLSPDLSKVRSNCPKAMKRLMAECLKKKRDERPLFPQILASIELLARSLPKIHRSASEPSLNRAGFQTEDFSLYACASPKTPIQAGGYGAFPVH
# assay-method-text: BRAF-inhibiting activity, time-resolved fluorescence-fluorescence resonance energy transfer assay
# Assay type: biochemical
# conditions-used: read-out: BRAF IC50; Table 3
readout: pIC50
Just so you know, pIC50 here is -log10 of the concentration in molar units; reply with that number alone.

CCS(=O)(=O)Nc1cccc(Cc2cc(C(=O)NOC)c(Nc3ccc(I)cc3Cl)c(F)c2F)c1F [Compound E-9] = 7.96
CNS(=O)(=O)Nc1nccc(Cn2cc(C(N)=O)c(Nc3ccc(I)cc3F)c(F)c2=O)c1F [Compound N-1] = 8.70
CNS(=O)(=O)Nc1nccc(Cc2cc(C(N)=O)c(Nc3ccc(I)cc3F)c(F)c2F)c1F [Compound A-25] = 8.70

--- query ---
Ask | For COCC1(S(=O)(=O)Nc2cccc(Cc3cc(C(=O)NOC(C)(C)C)c(Nc4ccc(I)cc4F)c(F)c3F)c2F)CC1 [Compound E-4] , what is its reported pIC50?
Reply | 7.96
